- testProtocol: recombinant UMI read abundance after kanamycin selection (control-corrected) (log10(CPM+1)); higher = more efficient recombination; extreme values may be limits of the assay; sequences stand for … in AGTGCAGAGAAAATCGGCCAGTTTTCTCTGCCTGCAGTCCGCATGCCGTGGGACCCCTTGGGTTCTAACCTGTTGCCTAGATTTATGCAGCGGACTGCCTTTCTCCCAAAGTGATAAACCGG…AGGTTGGTTTCACT; site = the 11-nt donor
Listing of entries alongside the reported recombinant UMI read abundance (log10).
# respond with the number and nothing more

{"chainSequence": "TACTTAACATGGACCGGTTTTCCCGGTAATCCGTATTTGCT (site TACTTGACTAG)", "recombinant UMI read abundance (log10)": 0.00699}
{"chainSequence": "TTGAATCCATGGACCGGTTTTCCCGGTAATCCGTATTTGTT (site CGGAATCCTAA)", "recombinant UMI read abundance (log10)": 0}
{"chainSequence": "GGAGGGGCATGGACCGGTTTTCCCGGTAATCCGTATTTGGT (site GGAGCGGCTAC)", "recombinant UMI read abundance (log10)": 0.00457}
{"chainSequence": "ACCGGTCCATGGACCGGTTTTCCCGGTAATCCGTATTTGCA (site GCCGGTCCTTG)", "recombinant UMI read abundance (log10)": 0}

Could you now consider this next sequence?
Need recombinant UMI read abundance (log10), item CTCTACACATGGACCGGTTTTCCCGGTAATCCGTATTTGCT (site CTCCACACTAG)
2.02

* * *

- testProtocol: recombinant barcode read abundance after kanamycin selection (control-corrected) (log10(CPM+1)); higher = more efficient recombination; sequences stand for … in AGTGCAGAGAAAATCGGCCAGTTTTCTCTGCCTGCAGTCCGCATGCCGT…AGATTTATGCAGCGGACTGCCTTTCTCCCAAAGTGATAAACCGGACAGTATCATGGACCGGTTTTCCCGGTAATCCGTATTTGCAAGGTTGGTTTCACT; site = the 11-nt target
Listing of entries alongside the reported recombinant barcode read abundance (log10).

Study these solved cases before continuing.
{"chainSequence": "GGTGCTCCTTGGGTTCTAACCTGTTGCAT (site GGTGCTCCTGT)", "testResult": 0.0976}
{"chainSequence": "CGGTAGTCTTGGGTTCTAACCTGTTGCTT (site CGGTAGTCTCA)", "testResult": 0.0659}

Need recombinant barcode read abundance (log10), item GTTACCTCTTGGGTTCTAACCTGTTGCCT (site CAAGGTCCTCC)
0.0556

Need recombinant barcode read abundance (log10), item GGCACCACTTGGGTTCTAACCTGTTGCCT (site GGCACAACTAG)
0.0402

Need recombinant barcode read abundance (log10), item CTCACACCTTGGGTTCTAACCTGTTGCTT (site CTCACACCTAA)
0.328

Need recombinant barcode read abundance (log10), item GACATATCTTGGGTTCTAACCTGTTGCTT (site ACTGGTCCTCC)
0.0369

Need recombinant barcode read abundance (log10), item TCAGTATCTTGGGTTCTAACCTGTTGCCT (site TCAGGATCTAG)
0.107

Need recombinant barcode read abundance (log10), item ATCAAGCCTTGGGTTCTAACCTGTTGCAG (site ATCAAGCCTCT)
1.83

Need recombinant barcode read abundance (log10), item CCTAAGCCTTGGGTTCTAACCTGTTGCGT (site CCTAATCCTAC)
0.161

Need recombinant barcode read abundance (log10), item AGATACTCTTGGGTTCTAACCTGTTGCCT (site ACATAGTCTAG)
0.428

* * *

- testProtocol: recombinant barcode read abundance after kanamycin selection (control-corrected) (log10(CPM+1)); higher = more efficient recombination; sequences stand for … in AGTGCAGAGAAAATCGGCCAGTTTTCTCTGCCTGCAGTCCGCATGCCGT…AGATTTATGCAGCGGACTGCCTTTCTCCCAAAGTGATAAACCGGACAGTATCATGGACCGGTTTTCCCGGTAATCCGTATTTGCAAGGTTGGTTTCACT; site = the 11-nt target
recordedMetric: recombinant barcode read abundance (log10)
# respond with the number and nothing more

Study these solved cases before continuing.
{"chainSequence": "AATAACTCTTGGGTTCTAACCTGTTGCCT (site TATAACTCTAG)", "testResult": 0.139}
{"chainSequence": "CACAGTACTTGGGTTCTAACCTGTTGCCT (site GACAGTACTAG)", "testResult": 0.29}
{"chainSequence": "CACGGGCCTTGGGTTCTAACCTGTTGCCT (site CACGGGCCTAG)", "testResult": 0.466}
{"chainSequence": "AGGGCATCTTGGGTTCTAACCTGTTGCCT (site AGGGCATCTAG)", "testResult": 0.122}

Need recombinant barcode read abundance (log10), item CTTCGAGCTTGGGTTCTAACCTGTTGCCG (site CTTCGAGCTCG)
0.873

* * *

- testProtocol: recombinant barcode read abundance after kanamycin selection (control-corrected) (log10(CPM+1)); higher = more efficient recombination; sequences stand for … in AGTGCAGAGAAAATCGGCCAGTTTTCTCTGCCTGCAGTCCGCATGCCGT…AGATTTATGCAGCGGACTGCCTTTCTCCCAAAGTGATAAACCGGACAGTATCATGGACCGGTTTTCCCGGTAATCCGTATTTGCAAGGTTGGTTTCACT; site = the 11-nt target
recordedMetric: recombinant barcode read abundance (log10)
# respond with the number and nothing more

{"chainSequence": "TCGCGGCCTTGGGTTCTAACCTGTTGCCT (site ACGCGGCCTAG)", "testResult": 0.153}
{"chainSequence": "CTCTAGCCTTGGGTTCTAACCTGTTGCGT (site CTCTAACCTAC)", "testResult": 1.38}

Need recombinant barcode read abundance (log10), item TGAACGCCTTGGGTTCTAACCTGTTGCCT (site TGAACGCCTAG)
0.39

Need recombinant barcode read abundance (log10), item TCCAAGACTTGGGTTCTAACCTGTTGCAG (site ACCAAGACTCG)
0.00865

Need recombinant barcode read abundance (log10), item CTCCAGCCTTGGGTTCTAACCTGTTGCGG (site CTCCAGCCTCC)
1.49

* * *

Listing of entries alongside the reported recombinant UMI read abundance (log10).
- testProtocol: recombinant UMI read abundance after kanamycin selection (control-corrected) (log10(CPM+1)); higher = more efficient recombination; extreme values may be limits of the assay; sequences stand for … in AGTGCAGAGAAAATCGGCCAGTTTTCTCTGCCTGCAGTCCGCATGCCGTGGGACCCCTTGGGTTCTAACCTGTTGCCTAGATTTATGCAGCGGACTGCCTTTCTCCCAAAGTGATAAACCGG…AGGTTGGTTTCACT; site = the 11-nt donor
# respond with the number and nothing more

Study these solved cases before continuing.
{"chainSequence": "GCTTGCCCATGGACCGGTTTTCCCGGTAATCCGTATTTGAC (site GCTTGCCCTTT)", "recordedMetric": "recombinant UMI read abundance (log10)", "testResult": 0.0621}
{"chainSequence": "TCGGGAACATGGACCGGTTTTCCCGGTAATCCGTATTTGAT (site TCGGGAACTAT)", "recordedMetric": "recombinant UMI read abundance (log10)", "testResult": 1.61}
{"chainSequence": "CGGCGTACATGGACCGGTTTTCCCGGTAATCCGTATTTGCT (site CGACGTACTAG)", "recordedMetric": "recombinant UMI read abundance (log10)", "testResult": 1.63}
{"chainSequence": "ATGCTGACATGGACCGGTTTTCCCGGTAATCCGTATTTGGT (site ATGCTGACTAC)", "recordedMetric": "recombinant UMI read abundance (log10)", "testResult": 1.32}
{"chainSequence": "CCCGGTCCATGGACCGGTTTTCCCGGTAATCCGTATTTGCA (site CCCGGACCTTG)", "recordedMetric": "recombinant UMI read abundance (log10)", "testResult": 0}

Need recombinant UMI read abundance (log10), item CATTATGCATGGACCGGTTTTCCCGGTAATCCGTATTTGGA (site AATTATGCTTC)
0.0205

Need recombinant UMI read abundance (log10), item TACTTGACATGGACCGGTTTTCCCGGTAATCCGTATTTGGT (site TACTTGACTAG)
0

Need recombinant UMI read abundance (log10), item GGCCACCCATGGACCGGTTTTCCCGGTAATCCGTATTTGTT (site GGCCATCCTAA)
0.0127

Need recombinant UMI read abundance (log10), item TGTGTGACATGGACCGGTTTTCCCGGTAATCCGTATTTGTC (site TGTGTGACTGA)
0

* * *

Listing of entries alongside the reported recombinant UMI read abundance (log10).
- testProtocol: recombinant UMI read abundance after kanamycin selection (control-corrected) (log10(CPM+1)); higher = more efficient recombination; extreme values may be limits of the assay; sequences stand for … in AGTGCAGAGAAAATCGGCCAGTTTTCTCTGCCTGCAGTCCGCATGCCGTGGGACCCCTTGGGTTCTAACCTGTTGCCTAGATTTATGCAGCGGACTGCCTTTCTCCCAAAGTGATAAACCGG…AGGTTGGTTTCACT; site = the 11-nt donor

Study these solved cases before continuing.
{"chainSequence": "CCAGGTGCATGGACCGGTTTTCCCGGTAATCCGTATTTGAT (site ACAGGTGCTAT)", "testResult": 0.0184}
{"chainSequence": "TGGACTACATGGACCGGTTTTCCCGGTAATCCGTATTTGAC (site CGGACTACTGT)", "testResult": 0}
{"chainSequence": "GTTCCAGCATGGACCGGTTTTCCCGGTAATCCGTATTTGCT (site GTTCCAGCTAG)", "testResult": 1.06}
{"chainSequence": "GGTCCAACATGGACCGGTTTTCCCGGTAATCCGTATTTGTC (site GGTCCAACTGA)", "testResult": 0}
{"chainSequence": "AGACGAACATGGACCGGTTTTCCCGGTAATCCGTATTTGTC (site AGACGAACTGA)", "testResult": 1.35}

Need recombinant UMI read abundance (log10), item ACTAGTCCATGGACCGGTTTTCCCGGTAATCCGTATTTGGT (site ACTAGTTCTAC)
0.244

Need recombinant UMI read abundance (log10), item ACCGGTCCATGGACCGGTTTTCCCGGTAATCCGTATTTGTT (site ACCGGTCCTAA)
0

Need recombinant UMI read abundance (log10), item AGGAAGACATGGACCGGTTTTCCCGGTAATCCGTATTTGCA (site AAGAAGACTTG)
1.06
